# MEASURED TARGET: Melanocortin receptor 4 (Homo sapiens, UniProt P32245)
# Sequence (P32245 whole entry): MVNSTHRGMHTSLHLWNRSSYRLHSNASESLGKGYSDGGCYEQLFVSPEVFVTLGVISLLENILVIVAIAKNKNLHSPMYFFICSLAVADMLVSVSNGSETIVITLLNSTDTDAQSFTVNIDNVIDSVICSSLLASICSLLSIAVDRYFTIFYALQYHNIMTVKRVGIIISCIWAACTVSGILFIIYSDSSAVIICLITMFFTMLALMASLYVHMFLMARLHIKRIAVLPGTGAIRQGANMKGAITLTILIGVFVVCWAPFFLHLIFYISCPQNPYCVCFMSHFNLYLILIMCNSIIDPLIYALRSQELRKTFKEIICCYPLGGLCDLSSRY
# EXPERIMENT: Effective concentration for cAMP accumulation mediated by human Melanocortin 4 receptor in HEK293 cells
EXPERIMENTAL ENDPOINT: EC50 (nM)

Examples with answers:
{"COMPOUND": "CCCCC(=O)N[C@]1(C(=O)N[C@H](Cc2ccccc2)C(=O)N[C@@H](CCCNC(=N)N)C(=O)N[C@@H](Cc2c[nH]c3ccccc23)C(=O)NCC(N)=O)CC[C@H](c2ccccc2)CC1", "VALUE UNITS": "nM", "EC50": 2}
{"COMPOUND": "CCCCC(=O)N[C@]1(C(=O)N[C@H](Cc2ccccc2)C(=O)N[C@@H](CCCNC(=N)N)C(=O)N[C@@H](Cc2c[nH]c3ccccc23)C(=O)NCC(N)=O)CC[C@H](c2ccc(OC(C)C)cc2)CC1", "VALUE UNITS": "nM", "EC50": 6}

1 = CCCCC(=O)N[C@]1(C(=O)N[C@H](Cc2ccccc2)C(=O)N[C@@H](CCCNC(=N)N)C(=O)N[C@@H](Cc2c[nH]c3ccccc23)C(=O)NCC(N)=O)CC[C@H](c2ccc(OCC)cc2)CC1
2 = CCCCC(=O)N[C@]1(C(=O)N[C@H](Cc2ccccc2)C(=O)N[C@@H](CCCNC(=N)N)C(=O)N[C@@H](Cc2c[nH]c3ccccc23)C(=O)NCC(N)=O)CC[C@H](c2cccc(OC)c2)CC1
3 = CCCCC(=O)N[C@]1(C(=O)NC(Cc2ccccc2)C(=O)NC(CCCN=C(N)N)C(=O)N[C@@H](Cc2c[nH]c3ccccc23)C(=O)NCC(N)=O)CC[C@@H](c2ccccc2)CC1 (single isomer, unassigned)
*Q* Returns the items ordered by EC50, from maximum to minimum. Show the ranking through the labels, in the order asked for.
*A* 3, 1, 2
